# target_system: TRPML1 (Homo sapiens)
# Sequence (Q9GZU1 whole entry L15A/L16A/L577A/L578A, form open): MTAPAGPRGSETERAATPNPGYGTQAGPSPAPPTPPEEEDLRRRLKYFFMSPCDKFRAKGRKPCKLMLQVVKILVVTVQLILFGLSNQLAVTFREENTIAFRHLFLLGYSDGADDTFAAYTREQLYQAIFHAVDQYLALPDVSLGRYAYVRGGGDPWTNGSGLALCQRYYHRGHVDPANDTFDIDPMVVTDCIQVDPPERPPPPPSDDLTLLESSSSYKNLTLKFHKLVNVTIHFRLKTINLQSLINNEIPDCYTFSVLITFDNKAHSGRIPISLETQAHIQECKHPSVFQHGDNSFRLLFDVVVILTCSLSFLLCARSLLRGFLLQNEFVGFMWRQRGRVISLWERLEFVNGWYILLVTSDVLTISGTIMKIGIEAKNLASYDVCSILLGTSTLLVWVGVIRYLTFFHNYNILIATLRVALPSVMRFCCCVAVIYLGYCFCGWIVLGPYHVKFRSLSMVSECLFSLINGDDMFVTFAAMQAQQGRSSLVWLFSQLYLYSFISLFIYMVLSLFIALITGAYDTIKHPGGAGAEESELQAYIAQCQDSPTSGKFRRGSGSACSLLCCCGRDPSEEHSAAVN
# test_summary: Fluorescent TRPML1 assay (Fluo4-AM calcium fluorescence in doxycycline-induced HEK-293 Trex cells)
# Format: cell-based
# experimental_context: fluorescent calcium assay
pEC50: −log10 of the molar value.
Kindly state pEC50 for each of the entries shown.

Lookup: Item `C[C@H]1CN(C(=O)OC(C)(C)C)CCN1c1ncnc2c1c(C1CC1)cn2-c1ccc(F)c(F)c1` has what recorded pEC50?
Found: > 7.00

Lookup: Item `C[C@H]1CN(C(=O)OC(C)(C)C)CCN1c1ncnc2c1c(C1CC1)cn2-c1ccc(F)c(C#N)c1` has what recorded pEC50?
Found: > 7.00

Lookup: Item `C[C@H]1CN(C(=O)OC(C)(C)C)CCN1c1ncnc2c1c(N1CCCC1)cn2[C@@H]1C[C@@H]2CC[C@H]1C2` has what recorded pEC50?
Found: 6.30 to 7.00

Lookup: Item `CCOC(=O)N1C[C@H](C)N(c2ncnc3c2c(-c2ccccn2)cn3-c2cccc(Cl)c2)C[C@H]1C` has what recorded pEC50?
Found: 6.30 to 7.00

Lookup: Item `C[C@H]1CN(C(=O)OC(C)(C)C)CCN1c1ncnc2c1c(N1CCCC1)cn2-c1cccc(C#N)c1` has what recorded pEC50?
Found: > 7.00

Lookup: Item `C[C@H]1CN(C(=O)OC(C)(C)C(F)(F)F)CCN1c1ncnc2c1c(N1CCCC1)cn2C1CCCCC1` has what recorded pEC50?
Found: 6.30 to 7.00

Lookup: Item `C[C@@H]1CN(c2ncnc3c2c(-c2ccccc2F)cn3-c2cnn(C)c2)[C@@H](C)CN1C(=O)OCC(F)(F)F` has what recorded pEC50?
Found: 6.30 to 7.00

* * *

# target_system: TRPML3 (Homo sapiens, UniProt Q8TDD5)
# Construct: expressed in transfected cells
# Sequence (Q8TDD5 whole entry): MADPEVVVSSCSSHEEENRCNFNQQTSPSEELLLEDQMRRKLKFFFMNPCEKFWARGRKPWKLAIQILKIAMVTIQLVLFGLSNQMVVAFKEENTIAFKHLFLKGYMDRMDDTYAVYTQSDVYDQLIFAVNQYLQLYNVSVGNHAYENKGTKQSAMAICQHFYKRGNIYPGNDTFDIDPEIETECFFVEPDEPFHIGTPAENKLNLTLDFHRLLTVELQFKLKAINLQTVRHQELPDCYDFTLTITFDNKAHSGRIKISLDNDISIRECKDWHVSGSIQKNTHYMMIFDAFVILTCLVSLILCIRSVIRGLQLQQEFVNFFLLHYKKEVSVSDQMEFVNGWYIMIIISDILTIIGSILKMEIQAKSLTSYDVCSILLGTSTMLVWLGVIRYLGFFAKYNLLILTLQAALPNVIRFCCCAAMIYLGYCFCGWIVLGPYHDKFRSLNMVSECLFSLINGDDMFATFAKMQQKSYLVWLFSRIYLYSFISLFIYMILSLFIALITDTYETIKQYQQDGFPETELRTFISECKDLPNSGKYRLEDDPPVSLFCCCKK
# test_summary: Fluorescent TRPML3 assay (performed as for TRPML1, substituting the TRPML3 subtype)
# Assay type: cell-based
# experimental_context: fluorescent calcium assay
pEC50: −log10 of the molar value.
measured_parameter: pEC50

Lookup: Item `C[C@H]1CN(C(=O)OC(C)(C)C)CCN1c1ncnc2c1c(CN1CCCC1)cn2-c1cccc(C#N)c1` has what recorded pEC50?
Found: 5.70 to 6.30

Lookup: Item `CCOC(=O)N1CCN(c2ncnc3c2c(-c2ccccc2F)cn3-c2cc(C#N)ccn2)[C@@H](C)C1` has what recorded pEC50?
Found: > 7.00

Lookup: Item `C[C@H]1CN(C(=O)OC(C)(C)C(F)(F)F)CCN1c1ncnc2c1c(-c1cncnc1)cn2-c1cccc(C#N)c1` has what recorded pEC50?
Found: > 7.00

Lookup: Item `CCCOc1cn(-c2cc(C#N)ccn2)c2ncnc(N3CCN(C(=O)OC(C)(C)C)C[C@@H]3C)c12` has what recorded pEC50?
Found: > 7.00

Lookup: Item CC1CN(C(=O)OC(C)(C)C)CCN1c1nccc2c1c(-c1ccccn1)cn2-c1cccc(Cl)c1 (stereo not shown) has what recorded pEC50?
Found: 6.30 to 7.00

Lookup: Item `C[C@H]1CN(C(=O)OC(C)(C)C)CCN1c1ncnc2c1c(C1CC1)cn2C1CCOCC1` has what recorded pEC50?
Found: 6.30 to 7.00

Lookup: Item `Cc1nccnc1-c1cn(-c2ccc(F)c(F)c2)c2ncnc(N3C[C@@H](C)N(C(=O)OC(C)(C)C)C[C@@H]3C)c12` has what recorded pEC50?
Found: > 7.00
